System: NCI-H460 lung
EXPERIMENT DESCRIPTION: NCI-60 one-dose screen, 48 h (100 = growth as untreated, 0 = no growth, -100 = all killed)
ASSAY SETUP: 10 µM unless noted
This is part of a sample that, as a whole, favours compounds with a hit. Of some 83,000 tested, about 20% had one in any assay.
Listing of entries alongside the reported growth.
PROPERTY NAME: growth (%)

Clc1nc(Nc2ccccc2)nc(Nc2ccccc2)n1 : 109
CCCCCCCCCCCCCCCC(=O)OC[C@@]1(O)C[C@@]23CC[C@@H]4C(C)(C)CCC[C@@]4(C)[C@@H]2CC[C@H]1C3 : 98.4
O=C(OC(OC(=O)c1cc(Cl)cc(Cl)c1)c1cccc2ccccc12)c1ccccc1 (stereo not given) : 107
COc1cc(/C=N/NC(=O)c2ccccc2Nc2cccc(C(F)(F)F)c2)ccc1O : 100
COc1ccc(C(=O)c2cc3c(N)c(C(=O)Nc4cccc(OC)c4)sc3nc2C)cc1 : 7.07

Data origin, for the record: PubChem BioAssay (NCI)
